Recorded TGI for the following compounds
test system: SW-620 colon; experiment: NCI tumour cell line growth inhibition, 48 h

Recorded TGI, per entry:
• C[C@]12[C@@H]3CC[C@H]1[C@@H](O)C(=O)N2CC3 = > 100 µM
• O=c1[nH]c2cc(Cl)ccc2nc1/C(=N\Nc1ccccc1)C(O)c1ccc(Cl)c(Cl)c1 (stereo not drawn) = > 100 µM

Just so you know, measured TGI for "C=CCNC(=S)N/C=C(\C#N)C(N)=O" came out at > 100 µM

Just so you know, measured TGI for "CO[C@](C(=O)OC[C@H]1[C@@H](COC(C)=O)[C@@H]2O[C@H]1c1cc3c(cc12)OCO3)(c1ccccc1)C(F)(F)F" came out at > 100 µM

Just so you know, measured TGI for Cc1ccc(NC2=C3CCCCC3OC2=O)cc1 (stereo not drawn) came out at > 100 µM

Just so you know, measured TGI for "CCN(CC)CCCNC(=O)c1cc(-c2nccn2C)nc2ccccc12" came out at > 100 µM

Just so you know, measured TGI for "COc1c2ccccc2c(OC)c2[nH]c(=O)ccc12" came out at > 63.4 µM

Just so you know, measured TGI for "O=C1NC2(CCN(CCc3ccccc3)CC2)Oc2ccccc21" came out at > 100 µM

Just so you know, measured TGI for "COc1cccc(-c2cc(=O)c3cc(N4CCCCC4)ccc3[nH]2)c1" came out at > 100 µM

Just so you know, measured TGI for "C(=C/CCCN1O[C@@H](CCCCCCCCc2cccnc2)[C@H]2CCC[C@H]21)/CCCCCCCCCc1cccnc1" came out at 91.8 µM

====

test system: HCT-15 colon; assay: NCI tumour cell line growth inhibition, 48 h
Outcome Measure: GI50

• CC1(C)[C@@H](NOCCCN)CC[C@]2(C)[C@H]3C(=O)C=C4[C@@H]5C[C@](C)(C(=O)O)CC[C@]5(C)CC[C@@]4(C)[C@]3(C)CC[C@@H]12 = 3.6 µM
• CC[C@@H](c1ccc(O)c(O)c1)[C@@H](CC)c1ccc(O)c(O)c1 = 2.39 µM
• Cc1ccc(NC2=C3CCCCC3OC2=O)cc1 (stereo unspecified) = > 100 µM
• Cc1[cH-]c(=O)n(-c2ccccc2)n1.[Au+].[Au].c1ccc([PH+](c2ccccc2)c2ccccc2)cc1.c1ccc([PH+](c2ccccc2)c2ccccc2)cc1 = 11.8 µM
• O=C1c2c(F)c(F)c(F)c(F)c2C(=O)N1c1ccc(F)cc1F = 2.57 µM

Observed GI50 on HCT-15 colon, entry COc1cc2c(cc1OC)-c1cc(OC)c(OC)cc1C(CN(C)C)C2 (stereo unspecified) , equals > 10 µM

Observed GI50 on HCT-15 colon, entry "Cc1nnc2ccnn2c1C" , equals > 100 µM

Observed GI50 on HCT-15 colon, entry "O=C(Nc1cccc(C(F)(F)F)c1)Nc1cccc(C(F)(F)F)c1" , equals 0.464 µM

Observed GI50 on HCT-15 colon, entry "COc1cc(-c2nn(-c3cccc(NC(=O)c4ccccc4)c3)cc2-c2ccncc2)ccc1Cl" , equals 0.579 µM

Observed GI50 on HCT-15 colon, entry "c1ccc(-c2n(Cc3ccc4ccccc4n3)cc[n+]2Cc2ccc3ccccc3c2)cc1" , equals 5.21 µM

Observed GI50 on HCT-15 colon, entry "[O-][Cl+3]([O-])([O-])[O-].[O]=[Ru]=[O].c1ccc(-c2ccccn2)nc1.c1ccc(-c2ccccn2)nc1" , equals > 100 µM

====

test system: EKVX NSCLC; experiment: NCI tumour cell line growth inhibition, 48 h
Outcome Measure: TGI

Recorded TGI, per entry:
* CC(=O)Nc1cc2ccc(=O)oc2cc1Cl | > 100 µM
* CC[C@@H](c1ccc(O)c(O)c1)[C@@H](CC)c1ccc(O)c(O)c1 | 29.4 µM
* O=C1C(Br)=C(Br)C(=O)c2ccc(=O)ccc21 | > 90.9 µM
* CC(C)(CN1CCCCC1)C(/C=C/c1ccc(Cl)cc1)=N\NC(=O)N/N=C(/C=C/c1ccc(Cl)cc1)C(C)(C)CN1CCCCC1 | 18.8 µM

Just so you know, measured TGI for "Cc1nc(-c2nc(C)c(C(=O)NNC(=O)C[n+]3ccccc3)s2)sc1C(=O)NNC(=O)C[n+]1ccccc1" came out at > 100 µM

====

tested on: 786-0 renal; test: NCI tumour cell line growth inhibition, 48 h; in the data active means GI50 below about 0.43 µM; inactive means the rest
Outcomes you can answer with include only these: active, inactive

Field: example entries. Status: answers known.
* CC(=O)N[C@@H](Cc1ccc(OP(=O)(O)O)cc1)C(=O)N[C@H]1CCC(=O)N2CCC[C@@H](C(=O)Nc3cccc4ccccc34)N2C1=O | inactive
* Cc1ccc(-c2nc(N3CCNCC3)c3oc(-c4ccc(C)cc4)nc3n2)cc1 | inactive

QUERY: # fetch the recorded call for "O=[N+]([O-])c1cc([N+](=O)[O-])c(C(F)(F)F)cc1NN=C(c1ccc(O)cc1)c1ccc(O)cc1" here
RESULT: inactive

QUERY: # fetch the recorded call for "c1ccc(-c2n(Cc3ccc4ccccc4n3)cc[n+]2Cc2ccc3ccccc3c2)cc1" here
RESULT: inactive

QUERY: # fetch the recorded call for "C=C1C[C@H](O)[C@H](Br)C(C)(C)[C@@]12CCC(C)=C(Cl)C2" here
RESULT: inactive

QUERY: # fetch the recorded call for "NC(=S)N/N=C1\c2cc(Cl)ccc2-c2c1cc(Cl)cc2[N+](=O)[O-]" here
RESULT: inactive

QUERY: # fetch the recorded call for "COc1ccc(CN2C(=O)C(Cl)=C(Nc3cccc(C(F)(F)F)c3)C2=O)cc1" here
RESULT: inactive

QUERY: # fetch the recorded call for "NC(=S)N/N=C\c1nccc2c(C(F)(F)F)cccc12" here
RESULT: active

====

system: SW-620 colon; test: NCI tumour cell line growth inhibition, 48 h; in the data active = GI50 below about 0.43 µM; inactive = the rest
Outcomes you can answer with include only these: true (active), false (inactive)

Field: example entries. Status: answers known.
* COc1cc2c(cc1OC)-c1cc(OC)c(OC)cc1C(CN(C)C)C2 (configuration not stated) | false
* CCNC(=O)C#Cc1ccc2c(C(=Nc3ccc(CN(C)C)cc3)c3ccccc3)c(O)[nH]c2c1 | true
* COc1ccc(Cn2c(Br)c3c(c2Br)-c2nc(N)sc2CC3)cc1 | false
* O=C(Nc1nn2c(-c3cc(C(F)(F)F)cc(C(F)(F)F)c3)nnc2s1)C1CCCC1 | false
* COc1ccc2ncnc(Nc3ccc(OCc4ccccc4)cc3)c2c1 | false

QUERY: # fetch the recorded call for "C=CC(=O)Nc1cc(Nc2nccc(-c3cn(C)c4ccccc34)n2)c(OC)cc1N(C)CCN(C)C" here
RESULT: false

QUERY: # fetch the recorded call for "CC(C)[C@@H]1NC(=O)[C@]2(C)CSC(=N2)c2ccnc(c2)CNC(=O)C[C@@H](/C=C/CCS)OC1=O" here
RESULT: false

====

tested on: DU-145 prostate; experiment: NCI tumour cell line growth inhibition, 48 h
Recorded TGI for the following molecules

Recorded TGI, per entry:
- CCCCCCc1cc2cc(-c3cn4ccsc4n3)c(=O)oc2cc1O: > 100 µM
- CCOC(=O)n1cc(C2=C(c3ccc(OC)c(OC)c3)COC2=O)c2ccccc21: > 100 µM
- O=C(O)Cc1ccc([N+](=O)[O-])cc1[N+](=O)[O-]: > 100 µM
- COc1ccc2ncnc(Nc3ccc(OCc4ccccc4)cc3)c2c1: > 25 µM
- CC[C@@H](c1ccc(O)c(O)c1)[C@@H](CC)c1ccc(O)c(O)c1: 26.2 µM

Just so you know, measured TGI for "C(=C/CCCN1O[C@@H](CCCCCCCCc2cccnc2)[C@H]2CCC[C@H]21)/CCCCCCCCCc1cccnc1" came out at > 100 µM

Just so you know, measured TGI for CC(=O)OCc1ccc2c(c1)C(O)NC(=O)O2 (stereo unspecified) came out at > 100 µM

Just so you know, measured TGI for O=C1c2ccccc2-n2nnnc2C2CSCN12 (stereo unspecified) came out at > 100 µM

====

system: M14 melanoma; assay: NCI tumour cell line growth inhibition, 48 h; in the data active = GI50 below about 0.43 µM; inactive = the rest
Outcomes you can answer with include only these: T (active), F (inactive)

- Cc1ccc(-c2nc(N3CCNCC3)c3oc(-c4ccc(C)cc4)nc3n2)cc1: F
- CC(C)[C@@H]1NC(=O)[C@]2(C)CSC(=N2)c2ccnc(c2)CNC(=O)C[C@@H](/C=C/CCS)OC1=O: T
- Cc1cc2c(cc1C)[n+](=O)c(C(=O)c1ccccc1)c(C(F)F)n2[O-]: F
- CC1(C)[C@@H](NOCCCN)CC[C@]2(C)[C@H]3C(=O)C=C4[C@@H]5C[C@](C)(C(=O)O)CC[C@]5(C)CC[C@@]4(C)[C@]3(C)CC[C@@H]12: F
- CN1CCN(C(=O)COc2ccc(C34CC5CC(CC(C5)C3)C4)cc2)CC1: F

Now look at this entry.
QUERY: # fetch the recorded call for "[O-][Cl+3]([O-])([O-])[O-].[O]=[Ru]=[O].c1ccc(-c2ccccn2)nc1.c1ccc(-c2ccccn2)nc1" here
RESULT: F
